# System Under Test: human plasma kallikrein (Homo sapiens, UniProt P03952)
# Sequence (P03952 391-638 limits assumed): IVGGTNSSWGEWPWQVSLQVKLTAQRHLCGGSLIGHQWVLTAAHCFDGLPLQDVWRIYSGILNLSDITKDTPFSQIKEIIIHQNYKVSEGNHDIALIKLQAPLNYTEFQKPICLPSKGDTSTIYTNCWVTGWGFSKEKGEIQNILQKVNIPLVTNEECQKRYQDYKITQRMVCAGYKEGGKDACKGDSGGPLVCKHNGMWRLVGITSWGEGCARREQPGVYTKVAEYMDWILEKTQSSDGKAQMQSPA
# Sequence (P03952 20-390 partner limits assumed): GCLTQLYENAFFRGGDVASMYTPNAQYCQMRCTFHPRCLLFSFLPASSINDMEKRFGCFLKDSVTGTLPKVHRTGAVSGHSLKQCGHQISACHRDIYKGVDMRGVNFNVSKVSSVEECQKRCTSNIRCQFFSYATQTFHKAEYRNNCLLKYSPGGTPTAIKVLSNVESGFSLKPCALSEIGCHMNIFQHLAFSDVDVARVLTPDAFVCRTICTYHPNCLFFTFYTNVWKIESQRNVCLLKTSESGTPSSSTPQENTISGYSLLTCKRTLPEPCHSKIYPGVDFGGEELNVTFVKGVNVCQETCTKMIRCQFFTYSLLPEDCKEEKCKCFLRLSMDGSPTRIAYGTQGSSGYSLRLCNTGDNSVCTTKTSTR
# Protocol: In vitro enzyme inhibition of human plasma kallikrein (Pro-Phe-Arg-AMC cleavage)
# Recorded Conditions: human Plasma Kallikrein (Abcam), substrate Pro-Phe-Arg-AMC, 37° C., Tris-HCl pH 7.5; read-out: hPK IC50
pIC50: −log10 of the molar value.
# pIC50 per entry

Solved cases (5 shown):
[
  {
    "Molecule": "Cn1nc(NCc2cnc3[nH]cc(Cl)c3c2)c2cc(Cc3ccc4ncc(Cl)cc4c3)ccc21",
    "pIC50": "6.00 to 7.00"
  },
  {
    "Molecule": "Clc1cnc2ccc(Cc3nc4ncnc(NCc5n[nH]c6ccc(Cl)cc56)c4[nH]3)cc2c1",
    "pIC50": "≥ 7.00"
  },
  {
    "Molecule": "FC(F)(F)c1cnc2ccc(Cc3nc4ncnc(NCc5cnc6[nH]cc(Cl)c6c5)c4[nH]3)cc2c1",
    "pIC50": "6.00 to 7.00"
  },
  {
    "Molecule": "Cc1cc(N)nc(C)c1CNc1ncnc2nc(Cc3ccc4ncc(Cl)cc4c3)[nH]c12",
    "pIC50": "≥ 7.00"
  },
  {
    "Molecule": "O=C(NCc1cc2c(Cl)c[nH]c2cc1F)c1ccc2c(c1)C(c1ccc3ncc(Cl)cc3c1)OC2 (centres unmarked)",
    "pIC50": "6.00 to 7.00"
  }
]

Given the molecule Cc1cc(N)nc(C)c1CNc1ncnc2cn(Cc3ccc4ncc(Cl)cc4c3)nc12 , what is its reported pIC50?
≥ 7.00

What pIC50 value was documented for this molecule, Clc1c[nH]c2ncc(CNc3ncnc4nc(Cc5ccc6ncccc6c5)[nH]c34)cc12 ?
6.00 to 7.00

What does the record list as pIC50 for FC(F)(F)c1cnc2ccc(Cc3nc4ncnc(NCc5n[nH]c6ccc(Cl)cc56)c4[nH]3)cc2c1 ?
≥ 7.00

----------
# System Under Test: human plasma kallikrein (Homo sapiens)
# Protocol: In vitro enzyme inhibition of human plasma kallikrein (Pro-Phe-Arg-AMC cleavage)
# Recorded Conditions: human Plasma Kallikrein (Abcam), substrate Pro-Phe-Arg-AMC, 37° C., Tris-HCl pH 7.5; read-out: hPK IC50
pIC50: −log10 of the molar value.
Property Name: pIC50

Worked examples follow.
[
  {
    "Molecule": "Clc1cnc2ccc(Cc3cc4c(NCc5cnc6[nH]cc(Cl)c6c5)n[nH]c4cn3)cc2c1",
    "System Under Test": "human plasma kallikrein (Homo sapiens)",
    "Endpoint Value": "6.00 to 7.00"
  },
  {
    "Molecule": "Clc1cnc2ccc(Cc3ccc4onc(NCc5cnc6[nH]cc(Cl)c6c5)c4c3)cc2c1",
    "System Under Test": "human plasma kallikrein (Homo sapiens)",
    "Endpoint Value": "6.00 to 7.00"
  }
]

For the compound Fc1cc2[nH]cc(Cl)c2cc1CNc1ncnc2nc(Cc3ccc4ncc(C(F)(F)F)cc4c3)[nH]c12 , what pIC50 is on record?
≥ 7.00

----------
# System Under Test: human plasma kallikrein (Homo sapiens, UniProt P03952)
# Protocol: In vitro enzyme inhibition of human plasma kallikrein (Pro-Phe-Arg-AMC cleavage)
# Recorded Conditions: human Plasma Kallikrein (Abcam), substrate Pro-Phe-Arg-AMC, 37° C., Tris-HCl pH 7.5; read-out: hPK IC50
pIC50: −log10 of the molar value.
Property Name: pIC50

Recorded pIC50 of Nc1nccc2cc(CNc3ncnc4nc(Cc5ccc6ncc(C(F)(F)F)cc6c5)[nH]c34)ccc12 , please.
≥ 7.00

What pIC50 value was documented for this compound, Cc1cc(N)nc(C)c1CNc1ncnc2nc(Cc3ccc4ncc(C(F)(F)F)cc4c3)[nH]c12 ?
≥ 7.00

What does the data say about its pIC50? Entry: Fc1c(CNc2ncnc3nc(Cc4ccc5ncc(C(F)(F)F)cc5c4)[nH]c23)ccc2[nH]cc(Cl)c12
≥ 7.00

Which value of pIC50 has been reported for Clc1cnc2ccc(Cc3ccc4[nH]nc(NCc5cnc6[nH]cc(Cl)c6c5)c4c3)cc2c1 in the records?
6.00 to 7.00

Requested field: pIC50. Item: Cc1cc(N)nc(C)c1CNc1nccc2nc(Cc3ccc4ncc(Cl)cc4c3)[nH]c12
5.00 to 6.00

Look up pIC50: Fc1c(CNc2ncnc3nc(Cc4ccc5ncc(Cl)cc5c4)[nH]c23)ccc2[nH]cc(Cl)c12
≥ 7.00

// lookup pIC50 for Clc1cnc2ccc(Cc3nc4ncnc(NCc5cnc6[nH]cc(Cl)c6c5)c4[nH]3)cc2c1
≥ 7.00
